In what follows, each item is paired with its pIC50 for human heparanase (Homo sapiens).
pIC50: −log10 of the molar value.

| compound | pIC50 |
| --- | --- |
| COc1ccc(-c2nc3cc(-c4cc5ccccc5o4)ccc3o2)cc1N1C(=O)c2ccc(C(=O)O)cc2C1=O [Example 15] | 6.30 |
| CCCNc1ccc(N2C(=O)c3ccc(C(=O)O)cc3C2=O)cc1-c1nc2ccc(C)cc2o1 [Example 65] | 6.10 |
| COc1ccc(-c2nc3cc(-c4ccc(N(C)C)cc4)ccc3o2)cc1N1C(=O)c2ccc(C(=O)O)cc2C1=O [Example 97] | 6.10 |
| CCCNc1ccc(N2C(=O)c3ccc(C(=O)O)cc3C2=O)cc1-c1nc2cc(-c3cc4ccccc4s3)ccc2o1 [Example 110] | 6.22 |
| COc1ccc(-c2nc3cc(-c4cc5ccccc5s4)ccc3o2)cc1N1C(=O)c2ccc(C(=O)O)cc2C1=O [Example 92] | 6.40 |
